# system_under_test: T1, Bbc1, P47068
# T1 sequence (P47068 1-78, looked up): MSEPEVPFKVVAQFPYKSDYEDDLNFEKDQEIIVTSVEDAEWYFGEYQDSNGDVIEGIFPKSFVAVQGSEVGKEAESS
# measurement_notes: SPOT array
# experimental_context: median of control spots 796
So I've got a bunch of binders here, and I need their SPOT intensity values.
Numbers only.

SRSKPLPLTPNSKYN | 5
IKTRSVPKIPSIESV | 10
PHNPSPFFPPPDFND | 0

Required: SPOT intensity, one value per binder below.
1. SAPDIPPRSPNRNAH
2. YHSRRHPLALGFKYV

Result block:
[1, 2]
